system: Escherichia coli TOP10; assay: shrunken log2 fold change of peptide-encoding DNA abundance (4.5 h post-induction vs induction); higher = less antimicrobial activity (less host growth inhibition); conditions: time post-induction: 4.5 h; library: site-saturation at positions 5, 18, 19, 20
Label rule, in plain words: shrunken log2 fold change of -0.2 and up is 1, under -0.2 is -1.

RRIRSRPPRLPRPRPRPTDAPRP; 1

QUERY: Textbook exercise: given the entry `RRIRPRPPRLPRPRPRPWLSPRP` , state whether its shrunken log2 fold change is greater than or equal to -0.2.
RESULT: 1

QUERY: Textbook exercise: given the entry `RRIRFRPPRLPRPRPRPPRHPRP` , state whether its shrunken log2 fold change is greater than or equal to -0.2.
RESULT: 1

QUERY: Textbook exercise: given the entry `RRIRHRPPRLPRPRPRPNKDPRP` , state whether its shrunken log2 fold change is greater than or equal to -0.2.
RESULT: -1

QUERY: Textbook exercise: given the entry `RRIRHRPPRLPRPRPRPVSFPRP` , state whether its shrunken log2 fold change is greater than or equal to -0.2.
RESULT: 1

----------
system: Escherichia coli TOP10; assay: shrunken log2 fold change of peptide-encoding DNA abundance (4.5 h post-induction vs induction); higher = less antimicrobial activity (less host growth inhibition); conditions: time post-induction: 4.5 h; library: site-saturation at positions 5, 18, 19, 20
Label rule, in plain words: shrunken log2 fold change of -0.001 and up is t, under -0.001 is f.

Some solved entries appear below for comparison.
RRIRERPPRLPRPRPRPSPGPRP; f
RRIRIRPPRLPRPRPRPNNDPRP; f
RRIRFRPPRLPRPRPRPDAIPRP; t

QUERY: Textbook exercise: given the entry `RRIRERPPRLPRPRPRPVRFPRP` , state whether its shrunken log2 fold change is greater than or equal to -0.001.
RESULT: t

QUERY: Textbook exercise: given the entry `RRIRARPPRLPRPRPRPMLNPRP` , state whether its shrunken log2 fold change is greater than or equal to -0.001.
RESULT: f

QUERY: Textbook exercise: given the entry `RRIRYRPPRLPRPRPRPDNIPRP` , state whether its shrunken log2 fold change is greater than or equal to -0.001.
RESULT: t

----------
test system: Escherichia coli TOP10; assay: shrunken log2 fold change of peptide-encoding DNA abundance (4.5 h post-induction vs induction); higher = less antimicrobial activity (less host growth inhibition); conditions: time post-induction: 4.5 h; library: site-saturation at positions 5, 18, 19, 20;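 further: peptides expressed intracellularly from a pBAD plasmid library in pooled LB shake-flask culture, induced with 0.3% L-arabinose, DNA abundance read by NGS, three biological replicates, DESeq2 with apeglm shrinkage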
quantity: shrunken log2 fold change
Answer field: number only, no words.

Guide cases for shrunken log2 fold change, answers given:
RRIRIRPPRLPRPRPRPNAKPRP; 0.0022
RRIRKRPPRLPRPRPRPNASPRP; 0.236
RRIRFRPPRLPRPRPRPHMYPRP; -1.28
RRIRNRPPRLPRPRPRPGCEPRP; 0.212
RRIRIRPPRLPRPRPRPNVDPRP; -0.272

QUERY: Query shrunken log2 fold change on Escherichia coli TOP10 for `RRIRGRPPRLPRPRPRPRKPPRP`
RESULT: 0.399

QUERY: Query shrunken log2 fold change on Escherichia coli TOP10 for `RRIRTRPPRLPRPRPRPSMCPRP`
RESULT: -0.377

QUERY: Query shrunken log2 fold change on Escherichia coli TOP10 for `RRIRVRPPRLPRPRPRPKGWPRP`
RESULT: 0.684

QUERY: Query shrunken log2 fold change on Escherichia coli TOP10 for `RRIRGRPPRLPRPRPRPIVRPRP`
RESULT: 0.211

QUERY: Query shrunken log2 fold change on Escherichia coli TOP10 for `RRIRVRPPRLPRPRPRPKRDPRP`
RESULT: 0.292

QUERY: Query shrunken log2 fold change on Escherichia coli TOP10 for `RRIRHRPPRLPRPRPRPEHVPRP`
RESULT: 0.0342

QUERY: Query shrunken log2 fold change on Escherichia coli TOP10 for `RRIRRRPPRLPRPRPRPQVQPRP`
RESULT: 0.0152

QUERY: Query shrunken log2 fold change on Escherichia coli TOP10 for `RRIRMRPPRLPRPRPRPVWRPRP`
RESULT: 0.947

QUERY: Query shrunken log2 fold change on Escherichia coli TOP10 for `RRIRNRPPRLPRPRPRPASQPRP`
RESULT: 0.545

QUERY: Query shrunken log2 fold change on Escherichia coli TOP10 for `RRIRIRPPRLPRPRPRPRVFPRP`
RESULT: 0.0961

QUERY: Query shrunken log2 fold change on Escherichia coli TOP10 for `RRIRKRPPRLPRPRPRPNGCPRP`
RESULT: -0.0163
